test system: SF-539; assay: NCI tumour cell line growth inhibition, 48 h
Active and inactive are the calls of the source. Cut-off read from the data, not from the text of the source: active = GI50 up to about 1.1 µM and inactive = higher.
# maps each entry to its GI50

// Clc1cccc(Cl)c1C1ON=C(c2ccccc2)N1C12CC3CC(CC(C3)C1)C2 (stereo not drawn) : GI50 value = 66.1 µM (inactive)

// CCOC(=O)c1ccc(Nc2cnc3ccc(C(F)(F)F)cc3n2)cc1 : GI50 value = 28.1 µM (inactive)

// CCCCCCCCCC1CC(=O)NCC(=O)NC(C(C)C)C(=O)NC(CC(C)C)C(=O)NC(C)C(=O)NC(C(C)C)C(=O)O1 (stereo not drawn) : GI50 value = 19.1 µM (inactive)

---

system: CAKI-1; assay: NCI tumour cell line growth inhibition, 48 h
Activity calls are given as the source filed them. Cut-off read from the data, not from the text of the source: active = GI50 up to about 1.1 µM and inactive = higher.
# maps each entry to its GI50

// Cc1c2ccccc2c(=O)n2c(-c3ccccn3)cccc12 : GI50 value = > 100 µM (inactive)

More entries:
// Cc1[nH]nc(C(=O)N/N=C/c2cccs2)c1/N=N\N(C)C : GI50 value = 5.78 µM (inactive)

// C=C(C)CNCCN : GI50 value = > 100 µM (inactive)

// CC1(C)CN=C(Nc2cccc(C(F)(F)F)c2)S1 : GI50 value = > 100 µM (inactive)

---

system: U-251; assay: NCI tumour cell line growth inhibition, 48 h
Calls of active or inactive are those of the source. No stated cut-off is given here; in the data, active = GI50 up to about 1.1 µM and inactive = higher.
Observed Property: GI50

Study these solved cases before continuing.
// COc1cc(C2SCC(=O)N2c2ccc(NC(C)=O)cc2)cc(OC)c1OC (stereo not given) : GI50 value = > 100 µM (inactive)

// O=C(/C=C/c1ccccc1)c1cc(Br)ccc1O : GI50 value = 15.1 µM (inactive)

// CCCCCCCCCCCCCCCCOP(=O)(O)OCC(NC(C)=O)C(=O)O (stereo not given) : GI50 value = 20 µM (inactive)

More entries:
// COC(=O)c1nc(N)nc(O)c1CCCCCc1c(O)nc(N)nc1C(=O)OC : GI50 value = > 50 µM (inactive)

// N#C/C(=C/c1ccsc1)C(=O)c1ccccc1 : GI50 value = > 100 µM (inactive)

---

system: RPMI-8226; assay: NCI tumour cell line growth inhibition, 48 h
Calls of active or inactive are those of the source. Cut-off read from the data, not from the text of the source: active = GI50 up to about 1.1 µM and inactive = higher.
One label from this list, please: active, inactive

Solved cases below.
Dear colleague, could you share the recorded outcome for COc1ccc2ccnc(Cc3ccc(OCc4ccccc4)c(OC)c3)c2c1 when you have a moment?
inactive

Dear colleague, could you share the recorded outcome for CCOC(=O)/C(=N\OC)C(O)C(F)(F)F (configuration not stated) when you have a moment?
inactive

Dear colleague, could you share the recorded outcome for O=[N+]([O-])c1ccccc1OCCOc1ccccc1[N+](=O)[O-] when you have a moment?
inactive

Dear colleague, could you share the recorded outcome for O=S(=O)(CC#CCS(=O)(=O)c1ccccc1)c1ccccc1 when you have a moment?
inactive

Dear colleague, could you share the recorded outcome for CN(C)c1cccc(-c2cc(O)c3cc4c(cc3n2)OCO4)c1 when you have a moment?
active

More entries:
Dear colleague, could you share the recorded outcome for O=C(NCCN1C(=O)CN=C(c2ccc(Cl)cc2)c2cc(Cl)ccc21)OCc1ccccc1 when you have a moment?
inactive

Dear colleague, could you share the recorded outcome for CC1(C)CN=C(Nc2cccc(C(F)(F)F)c2)S1 when you have a moment?
inactive

Dear colleague, could you share the recorded outcome for CCOC(=O)CCc1cccc2c1oc1c(CCNC(=O)OCC3c4ccccc4-c4ccccc43)cccc12 when you have a moment?
inactive

Dear colleague, could you share the recorded outcome for Cc1ccc(-n2cnc(C(=N)C#N)c2N)cc1 when you have a moment?
inactive

Dear colleague, could you share the recorded outcome for NS(=O)(=O)c1nnc(NC(=O)N(c2ccccc2)c2ccccc2)s1 when you have a moment?
inactive

Dear colleague, could you share the recorded outcome for O=[N+]([O-])C(=C(N1CCCCC1)N1CCCCC1)/C(Cl)=C(\Cl)Br when you have a moment?
inactive

Dear colleague, could you share the recorded outcome for N#C/C(=C/c1ccsc1)C(=O)c1ccccc1 when you have a moment?
inactive

---

tested on: SK-MEL-2; assay: NCI tumour cell line growth inhibition, 48 h
Activity calls are given as the source filed them. Cut-off read from the data, not from the text of the source: active = GI50 up to about 1.1 µM and inactive = higher.
# maps each entry to its GI50

Study these solved cases before continuing.
Note to self: GI50 of C[N+](C)(C)c1ncnc2c1ncn2C1CCCCO1 (stereo not given) with SK-MEL-2 was > 100 µM (inactive)

Note to self: GI50 of CCOC(=O)C(NC(=O)c1ccccc1)(Nc1cc(C)on1)C(F)(F)F (stereo not given) with SK-MEL-2 was > 100 µM (inactive)

Note to self: GI50 of CCOC(=O)c1c(SCc2cc(=O)[nH]c(=O)[nH]2)n(-c2ccccc2)c(=S)n(-c2ccccc2)c1=O with SK-MEL-2 was > 100 µM (inactive)

More entries:
Note to self: GI50 of Cc1cc2c(ccc3c(C)cc(=O)oc32)o1 with SK-MEL-2 was > 100 µM (inactive)

Note to self: GI50 of Nc1nc(OCC2CCCCC2)c2nc[nH]c2n1 with SK-MEL-2 was 4.5 µM (inactive)

---

test system: OVCAR-3; test: NCI tumour cell line growth inhibition, 48 h
Calls of active or inactive are those of the source. Rule as the data show it: active = GI50 up to about 1.1 µM and inactive = higher.
One label from this list, please: active, inactive

Solved cases below.
Dear colleague, could you share the recorded outcome for CN1CSC(=S)N(c2c3ccccc3nc3ccc(Br)cc23)C1 when you have a moment?
inactive

Dear colleague, could you share the recorded outcome for Cc1ccc(C2C(Cl)C(=O)N2n2cnc3ccccc3c2=O)cc1 (stereo not drawn) when you have a moment?
inactive

Dear colleague, could you share the recorded outcome for CCCCCCCCCCCCCCCCOP(=O)(O)OCC(NC(C)=O)C(=O)O (stereo not drawn) when you have a moment?
inactive

Dear colleague, could you share the recorded outcome for CC(C)CCCC(=O)CCCCCCC(=O)CCN(O)C(=O)C(N)CO (stereo not drawn) when you have a moment?
inactive

Dear colleague, could you share the recorded outcome for C=C(C(=O)OC)N1C(=O)CC(C)C1=O (stereo not drawn) when you have a moment?
inactive

Dear colleague, could you share the recorded outcome for CC1=C(Cl)C[C@@H](/C(C)=C\Cl)O[C@@]1(O)C(Br)Br when you have a moment?
inactive

More entries:
Dear colleague, could you share the recorded outcome for C[C@H](NC(=O)OC1C2C=CC(O)C1CC2)c1ccccc1 (stereo partly drawn) when you have a moment?
inactive

Dear colleague, could you share the recorded outcome for COC1=C(OC)C(=O)C(C/C=C/c2c(Cl)nc3sccn23)=C(C)C1=O when you have a moment?
inactive

Dear colleague, could you share the recorded outcome for CN(C)c1ccc(/C=N\N2C(=O)c3ccccc3C2=O)cc1 when you have a moment?
inactive

Dear colleague, could you share the recorded outcome for C/C(=N\N=C(/S)N1CC2CCC(CC2)C1)c1ccncn1 when you have a moment?
active

Dear colleague, could you share the recorded outcome for CCN1C(C)=NC2C(=O)c3ccccc3C(=O)C21 (stereo not drawn) when you have a moment?
inactive

Dear colleague, could you share the recorded outcome for C=C1CC2CC[C@@]34C[C@@H]5O[C@@H]6C(O[C@H]7CC[C@H](CC(=O)OC8[C@@H](C)C9OC%10C[C@]%11(C[C@@H]%12O[C@@]%13(C[C@@H](C)[C@@H]%12O%11)C[C@H](C)[C@@H]%11OC%12CC(C(O)CO)OC%12C[C@@H]%11O%13)OC%10CC9O[C@H]8C[C@H]8O[C@@H](CC[C@@H]1O2)C[C@@H](C)C8=C)O[C@@H]7[C@@H]6O3)C5O4 (stereo partly drawn) when you have a moment?
active

Dear colleague, could you share the recorded outcome for COc1cc(C(CC(OC)OC)=C(C#N)C#N)cc(OC)c1OC when you have a moment?
inactive

---

system: MDA-MB-231; assay: NCI tumour cell line growth inhibition, 48 h
The source made the active and inactive calls. Cut-off read from the data, not from the text of the source: active = GI50 up to about 1.1 µM and inactive = higher. Starred links: 1 amine or outer side, 2 acyl side, 3 side chain; linkers in the order of their positions; H or OH if unused. Positions of bridges follow the written chain, without caps; N, C: chain ends. Non-standard residues stand in square brackets, D forms with d. Residues, ends and D or L forms follow the SMILES beside them. Chains are numbered I, II in the order given. Actinocin(1to9) = Cc1c2oc3c(C)ccc(C(=O)[*:2])c3nc-2c(C(=O)[*:1])c(N)c1=O; NMeV = CN[CH](C(=O)O)C(C)C; Sar = CNCC(=O)O
One label from this list, please: y (active), n (inactive)

Solved cases below.
Dear colleague, could you share the recorded outcome for O=S(=O)(CC#CCS(=O)(=O)c1ccccc1)c1ccccc1 when you have a moment?
n

Dear colleague, could you share the recorded outcome for N#Cc1c(-c2ccc(Cl)cc2)c(-c2ccc(Cl)cc2)nn(CCOC(=O)CCC(=O)O)c1=O when you have a moment?
n

Dear colleague, could you share the recorded outcome for Fc1cccc(F)c1C(Nc1nncs1)Nc1nncs1 when you have a moment?
n

Dear colleague, could you share the recorded outcome for O=[N+]([O-])/C(C(Cl)=C(Cl)Cl)=C(/Cl)Sc1ccccc1 when you have a moment?
n

Dear colleague, could you share the recorded outcome for [N-]=[N+]=NC1=C(c2ccccn2)C(=O)c2cccc3cccc1c23 when you have a moment?
n

More entries:
Dear colleague, could you share the recorded outcome for CCC(C)C1NC(=O)C(NC(=O)c2c3nc4c(C(=O)NC5C(=O)NC(C(C)CC)C(=O)N6CCCC6C(=O)N(C)CC(=O)N(C)C(C(C)C)C(=O)OC5C)ccc(C)c4oc-3c(C)c(=O)c2N)C(C)OC(=O)C(C(C)C)N(C)C(=O)CN(C)C(=O)C2CCCN2C1=O (stereo unspecified) (I: TIP[Sar][NMeV] / II: TIP[Sar][NMeV]; ester I:1-I:C, II:1-II:C; linker I:N-II:N via Actinocin(1to9); configuration not given here) when you have a moment?
y

Dear colleague, could you share the recorded outcome for CC(=O)Nc1ccc(C(=O)NN2C(=O)CSC2c2ccccc2)cc1 (stereo unspecified) when you have a moment?
n

Dear colleague, could you share the recorded outcome for COC1CC(OC2C(C)OC(OC3C(C)OC(OC4C(C)OC(O[C@H]5CC[C@@]6(C)C(=CC[C@]7(O)[C@@H]6C[C@@H](OC(=O)/C=C/c6ccccc6)[C@@]6(C)[C@]7(O)CC[C@@]6(O)C(C)=O)C5)CC4OC)CC3OC)CC2OC)OC(C)C1O (stereo partly specified) when you have a moment?
n

Dear colleague, could you share the recorded outcome for CC1=C(Br)C(=O)C(C)=C(Br)C1=O.Cc1c(O)c(Br)c(C)c(O)c1Br when you have a moment?
n

Dear colleague, could you share the recorded outcome for CNC(=O)N(C)/N=N/CCCl when you have a moment?
n

Dear colleague, could you share the recorded outcome for CCc1ccccc1NNc1cc(=O)[nH]c(=O)[nH]1 when you have a moment?
n
